Test system: P388 leukemia ip, CD2F1 mice, survival T/C
test-summary: NCI In Vivo Anticancer Drug Screen. Data for tumor model P388 Leukemia (intraperitoneal) in CD2F1 (CDF1) mice
test-settings: endpoint: median survival time; dose: 50.0 mg/kg/injection; schedule: Q01DX009 (ip); vehicle: Klucel (hydroxypropylcellulose) (HPC); higher = longer survival
Toxic doses and inconclusive results are not listed.
measured-metric: T/C

Recorded T/C, per entry:
compound	T/C
Oc1ccc(N=Cc2cccs2)cc1	100 % of control
Nc1cc(S(N)(=O)=O)ccc1SSc1ccc(S(N)(=O)=O)cc1N	94 % of control
COc1ccccc1N1CCCSC1=Nc1ccccc1	90 % of control
Nc1cccc(SC(CC(=O)c2ccc(-c3ccccc3)cc2)c2ccco2)c1 (stereo unspecified)	97 % of control

Please go through the list and note T/C for each compound.
1. COc1ccc(OC)c(/C=C/c2ccc([N+](=O)[O-])cc2)c1
2. CCCCN(CCC#N)c1ccc(/C=C/c2ccnc3ccccc23)cc1
3. C(=C\c1ccc(-c2nc3ccccc3o2)cc1)/c1ccc(-c2nc3ccccc3o2)cc1
4. COc1cc(/C=N/NC(N)=O)cc(OC)c1O

Outgoing:
["100 % of control", "96 % of control", "100 % of control", "105 % of control"]

Please go through the list and note T/C for each compound.
1. Cc1cc(Br)c(N)c(C(O)(C(F)(F)F)C(F)(F)F)c1
2. COC1C(/C=[N+](\[O-])C2C(C3COC(C)(C)O3)OC3OC(C)(C)OC32)OC2OC(C)(C)OC21 (stereo unspecified)
3. C1CSCCSCCSCCSCCSCCS1

Outgoing:
["91 % of control", "100 % of control", "96 % of control"]

* * *

System: P388 leukemia ip, CD2F1 mice, survival T/C
test-summary: NCI In Vivo Anticancer Drug Screen. Data for tumor model P388 Leukemia (intraperitoneal) in CD2F1 (CDF1) mice
test-settings: endpoint: median survival time; dose: 240.0 mg/kg/injection; schedule: Q01DX005 (ip); vehicle: saline with Tween-80
Protocol: The antitumor activity of compounds was measured in mice bearing transplantable tumors. Survival or tumor size were measured and the results are expressed as the measurement made in the treated group (T) divided by the measurement made in the vehicle treated control group (C). The tumor model used in this assay is P388 Leukemia (intraperitoneal) in CD2F1 (CDF1) mice
Toxic doses and inconclusive results are not listed. How the source made its calls: active means survival T/C of 150% or more; inactive means T/C below 125% in these data.
Pick one and only one: active, inactive

Answered cases to consult:
molecule	classification
O=C(Cc1nc2ccccc2nc1CC(=O)c1ccncc1)c1ccncc1	inactive
COC1OC(C(C)Br)C2OC(C)(C)OC12 (centres undefined)	inactive
CCOC1=C(C)N2/C(=C/C(=O)OC)[C@@H]3C[C@@H](C)C[C@]2(O3)S1	inactive
COC(=O)c1cc(-c2ccc(O)c(OC)c2)n2c(NC(=O)Nc3ccc(Cl)cc3)nnc2n1	inactive

Please look at the following molecule next.
Incoming: Per the records of this test, what outcome belongs to O=C(c1ccccc1)c1cc(Cl)ccc1NCC(O)COc1ccc(Cl)cc1 (centres undefined) ?
Outgoing: inactive

* * *

Tested on: P388 leukemia ip, CD2F1 mice, survival T/C
test-summary: NCI In Vivo Anticancer Drug Screen. Data for tumor model P388 Leukemia (intraperitoneal) in CD2F1 (CDF1) mice
test-settings: endpoint: median survival time; dose: 200.0 mg/kg/injection; schedule: Q01DX001 (ip); vehicle: Klucel (hydroxypropylcellulose) (HPC)
Inconclusive results and toxic doses are left out. Rule for the calls: active = survival T/C of 150% or more; inactive = T/C below 125% in these data.
Pick one and only one: 1 for active, -1 for inactive

Answered cases to consult:
molecule	classification
NC(=O)c1c(Cl)nc2n1CCS2	-1
COc1ccc2c(c1)CCC1C2=NN=C2CCCC21 (stereo not given)	-1
CN(C)CC(O)c1ccc2ccc3ccccc3c2c1 (stereo not given)	-1
NC(CSCCCSCC(N)C(=O)O)C(=O)O (stereo not given)	-1
C=C1C(=O)OC2/C=C(\C)C(OC(C)=O)C/C=C(\C)CC(OC(=O)/C(=C/CO)CO)C12 (stereo not given)	-1

Incoming: Per the records of this test, what outcome belongs to OC1(c2ccc(Cl)cc2)c2ccccc2COc2ccccc21 (stereo not given) ?
Outgoing: -1

Incoming: Per the records of this test, what outcome belongs to `Cc1ccc(S(=O)(=O)N/N=C/c2c(Cl)n(C)c3ccccc23)cc1` ?
Outgoing: -1

Incoming: Per the records of this test, what outcome belongs to `COc1ccc(Nc2ncnc3ccccc23)cc1CN(CCCl)CCCl` ?
Outgoing: -1

Incoming: Per the records of this test, what outcome belongs to O=S(=O)(O)C(O)c1ccc(Cl)cc1Cl (stereo not given) ?
Outgoing: -1

Incoming: Per the records of this test, what outcome belongs to `COc1cc(CO)c(I)c(OC)c1OC` ?
Outgoing: -1

Incoming: Per the records of this test, what outcome belongs to `Cc1ccc(S(=O)(=O)N/N=C/c2c(Cl)[nH]c3cc(C)c(O)cc23)cc1` ?
Outgoing: -1

Incoming: Per the records of this test, what outcome belongs to `O=C(O)Cc1cn2ccncc2n1` ?
Outgoing: -1

Incoming: Per the records of this test, what outcome belongs to `O=C(CCl)c1ccc2c(c1)N(C(=O)COc1ccccc1)c1ccccc1S2` ?
Outgoing: -1

Incoming: Per the records of this test, what outcome belongs to CN1CC(NC(=O)N(CCCl)N=O)CC2c3cccc4c3c(cn4N=O)CC21 (stereo not given) ?
Outgoing: 1

Incoming: Per the records of this test, what outcome belongs to CC(O)c1cc2c(cc1Br)OCO2 (stereo not given) ?
Outgoing: -1

* * *

Test system: P388 leukemia ip, CD2F1 mice, survival T/C
test-summary: NCI In Vivo Anticancer Drug Screen. Data for tumor model P388 Leukemia (intraperitoneal) in CD2F1 (CDF1) mice
test-settings: endpoint: median survival time; dose: 200.0 mg/kg/injection; schedule: Q04DX003 (ip); vehicle: saline; higher = longer survival
Inconclusive results and toxic doses are left out.
measured-metric: T/C

Recorded T/C, per entry:
molecule	T/C
O=c1[nH]cnc2cc3c(cc12)nc1n3CCOC1	105 % of control
Cc1cnc(I)[nH]1	112 % of control
Cn1c(=O)c2c(nc([N+](=O)[O-])n2C)n(C)c1=O	100 % of control

Please go through the list and note T/C for each molecule.
1. S=c1[nH]nc2nc3c4ccccc4c4ccccc4c3nn12
2. CCOC(=O)NC(NC(=O)OCC)c1ccc(C(NC(=O)OCC)NC(=O)OCC)cc1
3. COc1ccc(CC(C#N)c2ccccc2)cc1 (stereo unspecified)

Outgoing:
["93 % of control", "90 % of control", "99 % of control"]

* * *

System: P388 leukemia ip, CD2F1 mice, survival T/C
test-summary: NCI In Vivo Anticancer Drug Screen. Data for tumor model P388 Leukemia (intraperitoneal) in CD2F1 (CDF1) mice
test-settings: endpoint: median survival time; dose: 100.0 mg/kg/injection; schedule: Q01DX009 (ip); vehicle: saline with Tween-80; higher = longer survival
Toxic doses and inconclusive results are not listed.
measured-metric: T/C

Recorded T/C, per entry:
compound	system-name	T/C
Cc1cc(C(=O)N/N=C/c2ccccc2O)c2cc(Br)ccc2n1	P388 leukemia ip, CD2F1 mice, survival T/C	98 % of control
CC(=O)Nc1ccc(NC(=S)NC(=O)c2ccccc2)cc1	P388 leukemia ip, CD2F1 mice, survival T/C	100 % of control
CC12CCC3C(CCC4(O)C=CCCC34C=O)C1(O)CC(O)C2c1ccc(=O)oc1 (centres undefined)	P388 leukemia ip, CD2F1 mice, survival T/C	91 % of control

Please go through the list and note T/C for each compound.
1. CCCCC(NC(=O)c1ccccc1)C(=O)O (centres undefined)
2. Oc1cc2c(cc1O)C(c1ccccc1)CNCC2 (centres undefined)
3. CC(C)C1=CC2=C(CC1)C1(C)CCCC(C)(C(=O)O)C1CC2 (centres undefined)
4. O=S(=O)(CCS(=O)(=O)c1ccccc1)c1ccccc1
5. NC=O
6. C[Si](C)(C)O/C=C1\CCCCC1=O

Outgoing:
100 % of control
104 % of control
100 % of control
92 % of control
109 % of control
106 % of control

* * *

Tested on: P388 leukemia ip, CD2F1 mice, survival T/C
test-summary: NCI In Vivo Anticancer Drug Screen. Data for tumor model P388 Leukemia (intraperitoneal) in CD2F1 (CDF1) mice
test-settings: endpoint: median survival time; dose: 100.0 mg/kg/injection; schedule: Q01DX005 (ip); vehicle: Klucel (hydroxypropylcellulose) (HPC); higher = longer survival
Toxic doses and inconclusive results are not listed.
Could you please report measured T/C for the items listed next?

Recorded T/C, per entry:
molecule	measured-metric	meas-value
CC(C)(C)OC(=O)NC(CCCCNC(=O)OCC1c2ccccc2-c2ccccc21)C(=O)O (configuration not stated)	T/C	99 % of control
CC1NC(=O)N(C2CCCCCCC2)C1=O (configuration not stated)	T/C	114 % of control
CN1C(=O)/C(=C2\SC(=O)N(CN3CCOCC3)C2=O)c2ccccc21	T/C	99 % of control
CN(C)N1C(=O)c2ccccc2NC1c1ccccc1 (configuration not stated)	T/C	96 % of control
COc1ccccc1P(C)(=O)c1ccccc1 (configuration not stated)	T/C	103 % of control

Please go through the list and note T/C for each molecule.
1. COc1cc2c(cc1Cc1ccc3c(c1)OCO3)OCO2
2. CC(NC(=O)OCc1ccccc1)C(=O)NC(C(=O)O)C(C)O (configuration not stated)
3. CCOC(=O)C1=C(c2ccccc2)OC(N)=C(C#N)C1c1ccccc1Cl (configuration not stated)

Outgoing:
1: 92 % of control; 2: 99 % of control; 3: 105 % of control
